Measured LD50 of individual entries
assay: Acute toxicity determined after intravenal administration in mice; type: organism-based; settings: mouse, in vivo, iv
Write the number in mg/kg without appending the unit.

Examples with answers:
- CC(=O)Nc1ccc(CNCCCNC(=O)C2=CC(C)(C)NC2(C)C)cc1: 23
- CC1(C)C=C(C(=O)NCCNC(=O)C(O)c2ccccc2)C(C)(C)N1 (stereo not given): 85
- Cc1cccc(C)c1NC(=O)C(C)NCCCNC(=O)C1=CC(C)(C)NC1(C)C (stereo not given): 26
- CCCc1ccc(OCC(=O)NCCCNC(=O)C2=CC(C)(C)NC2(C)C)c(OC)c1: 12
- CC1(C)C=C(C(=O)NCC(O)CNC(=O)c2cccs2)C(C)(C)N1 (stereo not given): 65

Record CC1(C)C=C(C(=O)NCCCNC(=O)Cc2ccccc2)C(C)(C)N1 . Reported LD50: 54

Record COc1ccc(CCNC(=O)C2=CC(C)(C)NC2(C)C)cc1OC . Reported LD50: 123

Record C=CCc1cc(C)ccc1OCC(=O)NCCNC(=O)C1=CC(C)(C)NC1(C)C . Reported LD50: 19

Record COc1cc(CNCCCNC(=O)C2=CC(C)(C)NC2(C)C)cc(OC)c1OC . Reported LD50: 22

Record CC1(C)C=C(C(=O)NCCN2C(=O)C3CCCCC3C2=O)C(C)(C)N1 (stereo not given) . Reported LD50: 128

Values compiled from ChEMBL document CHEMBL1123299.
